measurement-notes: Thermodynamic solubility measurements
Assay type: physicochemical
measurement-parameters: aqueous buffer, thermodynamic from solid; pH 4; thermodynamic solubility; read-out: Solubility, pH 4
outcome-measure: solubility (µg/mL)

Some solved entries appear below for comparison.
# compound, solubility, µg/mL
records = [
    ("CCn1c(=O)c2c(nc3n2CCN(Cc2cccc(Br)c2)C3)n(C)c1=O [Compound 14b]", 1),
    ("CCn1c(=O)c2c(nc3n2CCN(Cc2ccccc2C(F)(F)F)C3)n(CC)c1=O [Compound 15f]", 0.9),
    ("CCn1c(=O)c2c(nc3n2CCN(Cc2ccccc2Br)C3)n(C)c1=O [Compound 14a]", 0.9),
]

a. CCn1c(=O)c2c(nc3n2CCN(Cc2cccc(C(F)(F)F)c2)C3)n(C)c1=O [Compound 14e]
b. CCn1c(=O)c2c(nc3n2CCN(Cc2ccccc2C(F)(F)F)C3)n(C)c1=O [Compound 14d]
c. CCn1c(=O)c2c(nc3n2CCN(Cc2ccc(Br)cc2)C3)n(C)c1=O [Compound 14c]
Enquiry: Give the ascending ranking of the items by reported solubility. Put the labels in the requested order and list them out.
Return: b, a, c
(b: 1 µg/mL, a: 2 µg/mL, c: 6 µg/mL)

###

target: rat A1 AR (Rattus norvegicus, UniProt P25099)
Sequence (P25099 1-326): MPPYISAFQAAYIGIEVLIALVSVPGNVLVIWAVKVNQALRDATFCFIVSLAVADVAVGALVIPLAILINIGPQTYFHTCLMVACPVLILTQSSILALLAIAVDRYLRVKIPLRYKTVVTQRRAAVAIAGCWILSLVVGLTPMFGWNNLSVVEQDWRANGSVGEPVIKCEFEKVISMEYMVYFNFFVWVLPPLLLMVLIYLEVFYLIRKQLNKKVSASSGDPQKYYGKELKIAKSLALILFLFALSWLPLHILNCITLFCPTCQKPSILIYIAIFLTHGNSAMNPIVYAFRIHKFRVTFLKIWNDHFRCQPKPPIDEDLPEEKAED
outcome-measure: Ki (nM)

# molecule, units, Ki
records = [
    ("CCn1c(=O)c2c(nc3n2CCN(Cc2ccc(Cl)c(C(F)(F)F)c2)C3)n(CC)c1=O [Compound 15p]", "nM", 588),
    ("CCn1c(=O)c2c(nc3n2CCN(Cc2cccc(Cl)c2)C3)n(CC)c1=O [Compound 15c]", "nM", 85.9),
    ("CCn1c(=O)c2c(nc3n2CCN(Cc2cc(C(F)(F)F)ccc2Cl)C3)n(CC)c1=O [Compound 15n]", "nM", 19.6),
    ("C#CCn1c(=O)c2c(nc3n2CCN(Cc2cc(C(F)(F)F)ccc2Cl)C3)n(C)c1=O [Compound 19b]", "nM", 153),
    ("CCn1c(=O)c2c(nc3n2CCN(Cc2cc(F)cc(Cl)c2)C3)n(C)c1=O [Compound 14n]", "nM", 36.2),
    ("CCCn1c(=O)c2c(nc3n2CCN(Cc2ccc(Cl)c(Cl)c2)C3)n(C)c1=O [Compound 18]", "nM", 152),
    ("C#CCn1c(=O)c2c(nc3n2CCN(CCc2ccccc2OC)C3)n(CC)c1=O [Compound 20i]", "nM", 701),
    ("CCn1c(=O)c2c(nc3n2CCN(Cc2cc(Br)ccc2F)C3)n(C)c1=O [Compound 14o]", "nM", 36),
    ("CCn1c(=O)c2c(nc3n2CCN(Cc2cc(C(F)(F)F)ccc2F)C3)n(CC)c1=O [Compound 15j]", "nM", 124),
    ("CCn1c(=O)c2c(nc3n2CCN(Cc2ccc(F)c(Br)c2)C3)n(CC)c1=O [Compound 15k]", "nM", 270),
]

A. CCn1c(=O)c2c(nc3n2CCN(Cc2cccc(F)c2)C3)n(CC)c1=O [Compound 15b]
B. C#CCn1c(=O)c2c(nc3n2CCN(CCc2ccc(OC)cc2)C3)n(CC)c1=O [Compound 20k]
C. CCn1c(=O)c2c(nc3n2CCN(Cc2cc(Cl)cc(Cl)c2)C3)n(CC)c1=O [Compound 15m]
Enquiry: Give the ascending ranking of the items by reported Ki. Put the labels in the requested order and list them out.
Return: A, C, B

a. C#CCn1c(=O)c2c(nc3n2CCN(c2cccc(OC)c2)C3)n(CC)c1=O [Compound 20c]
b. CCn1c(=O)c2c(nc3n2CCN(Cc2ccccc2Br)C3)n(C)c1=O [Compound 14a]
c. CCn1c(=O)c2c(nc3n2CCN(Cc2cccc(C(F)(F)F)c2)C3)n(CC)c1=O [Compound 15g]
d. CCn1c(=O)c2c(nc3n2CCN(Cc2cccc(F)c2)C3)n(C)c1=O [Compound 14g]
e. C#CCn1c(=O)c2c(nc3n2CCN(CCc2ccc(OC)c(OC)c2)C3)n(CC)c1=O [Compound 20l]
Enquiry: Give the ascending ranking of the items by reported Ki. Put the labels in the requested order and list them out.
Return: c, d, b, a, e
(c: 30 nM, d: 59.4 nM, b: 123 nM, a: 328 nM, e: 3800 nM)

A. C#CCn1c(=O)c2c(nc3n2CCN(CCc2ccccc2)C3)n(CC)c1=O [Compound 20h]
B. CCn1c(=O)c2c(nc3n2CCN(Cc2cccc(Br)c2)C3)n(C)c1=O [Compound 14b]
Enquiry: Of the two listed items, A and B , which carries the larger Ki figure? Output the label that corresponds to your choice.
Return: A

A. C#CCn1c(=O)c2c(nc3n2CCN(Cc2ccccc2)C3)n(CC)c1=O [Compound 20e]
B. CCn1c(=O)c2c(nc3n2CCN(Cc2cccc(C(F)(F)F)c2F)C3)n(C)c1=O [Compound 14l]
Enquiry: # query: argmin of Ki over A and B Output the label that corresponds to your choice.
Return: A
(A: 118 nM, B: 236 nM)

1. CCn1c(=O)n(C)c(=O)c2c1nc1n2CCN(Cc2cc(Cl)cc(Cl)c2)C1 [Compound 16b]
2. C#CCn1c(=O)c2c(nc3n2CCN(c2ccc(F)cc2)C3)n(CC)c1=O [Compound 20b]
3. CCn1c(=O)c2c(nc3n2CCN(Cc2cc(C(F)(F)F)ccc2Cl)C3)n(C)c1=O [Compound 14m]
4. C#CCn1c(=O)c2c(nc3n2CCN(CCc2cccc(OC)c2)C3)n(CC)c1=O [Compound 20j]
5. CCn1c(=O)c2c(nc3n2CCN(Cc2ccccc2F)C3)n(CC)c1=O [Compound 15a]
Enquiry: Arrange the 5 molecules from largest to smallest Ki. Put the labels in the requested order and list them out.
Return: 4, 2, 3, 1, 5
